# Test system: viable cells in culture
# Test Name: Cell viability assay at 10 μM (CellTiter-Glo, Table VII);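 further: graded A 0-20%; B 21-40%; C 41-60%; D over 60% viable cells relative to DMSO control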
# Assay type: cell-based
# Condition Label: Homo sapiens, HCT-116; HCT116 def; compound 10 μM; 72 h; read-out: percentage (%) of viable cells HCT 116def
# Experimental: The CellTiter-Glo® Luminescent Cell Viability Assay (Promega Corporation. Madison, Wis., USA) is method a determining the number of viable cells in culture based on quantification of the ATP being present which is an indicator of metabolically active cells was used according to manufacturers protocol. […] Percentage of inhibition was calculated compared to ATP amount of DMSO control.
Listing: viability at 10 µM of selected compounds

Compound: COc1cc2c(Oc3ccc(NS(=O)(=O)c4ccccc4Br)cc3F)ccnc2cc1OCCCN1CCN(C)CC1
viability at 10 µM: 21 to 40%

Compound: COc1cc2c(Oc3ccc(NS(=O)(=O)c4ccccc4C(F)(F)F)cc3F)ccnc2cc1OCCCNC1CCOCC1
viability at 10 µM: 21 to 40%

Compound: COc1cc2c(Oc3c(Cl)cc(NS(=O)(=O)c4c(F)cccc4F)cc3Cl)ccnc2cc1OCCCN1CCN(C)CC1
viability at 10 µM: 0 to 20%

Compound: COc1cc2c(Oc3ccc(NS(=O)(=O)c4cccc(Oc5ccccc5)c4)cc3F)ccnc2cc1OCCCN1CCCCC1
viability at 10 µM: 0 to 20%

Compound: COc1cc2c(Oc3ccc(NS(=O)(=O)c4ccccc4C)cc3F)ccnc2cc1OCCCN1CCN(C)CC1
viability at 10 µM: 21 to 40%

Compound: COc1cc2c(Oc3ccc(NS(=O)(=O)c4ccccc4Cl)cc3F)ccnc2cc1OCCCN1CCN(C)CC1
viability at 10 µM: 0 to 20%

So for "COc1cc2c(Oc3ccc(NS(=O)(=O)c4ccc(F)cc4F)cc3F)ccnc2cc1OCCCN1CCN(C)CC1" , the logged viability at 10 µM turned out to be 41 to 60%

So for "COc1cc2c(Oc3ccc(NS(=O)(=O)c4ccccc4OC)cc3F)ccnc2cc1OCCCN1CCN(C)CC1" , the logged viability at 10 µM turned out to be 21 to 40%

So for "COc1cc2c(Oc3ccc(NS(=O)(=O)c4ccc(Cl)cc4F)cc3F)ccnc2cc1OCCCN1CCN(C)CC1" , the logged viability at 10 µM turned out to be 0 to 20%

So for COc1cc2c(Oc3ccc(NS(=O)(=O)c4cc(Cl)cc(Cl)c4OC)cc3F)ccnc2cc1OCCCN1CCCC(C)C1 (stereo not drawn) , the logged viability at 10 µM turned out to be 21 to 40%

So for "COc1cc2c(Oc3ccc(NS(=O)(=O)c4cccc(F)c4)cc3F)ccnc2cc1OCCCN1CCN(C)CC1" , the logged viability at 10 µM turned out to be 21 to 40%

So for COc1cc2c(Oc3ccc(NS(=O)(=O)c4ccc(Cl)s4)cc3F)ccnc2cc1OCCCN1CCCC(C)C1 (stereo not drawn) , the logged viability at 10 µM turned out to be 21 to 40%

So for "COc1cc2c(Oc3ccc(NS(=O)(=O)c4c(F)cccc4F)cc3F)ccnc2cc1OCCCN1CCOCC1" , the logged viability at 10 µM turned out to be 21 to 40%

So for "COc1cc2c(Oc3ccc(NS(=O)(=O)c4cc(Cl)cc(Cl)c4OC)cc3F)ccnc2cc1OCCCN1CCN(C)CC1" , the logged viability at 10 µM turned out to be 21 to 40%

So for "COc1cc2c(Oc3ccc(NS(=O)(=O)c4ccccc4[N+](=O)[O-])cc3F)ccnc2cc1OCCCN1CCCCC1" , the logged viability at 10 µM turned out to be 21 to 40%

So for "COc1cc2c(Oc3ccc(NS(=O)(=O)c4c(F)cccc4F)cc3F)ccnc2cc1OCCN1CCOCC1" , the logged viability at 10 µM turned out to be 21 to 40%

So for "COc1cc2c(Oc3ccc(NS(=O)(=O)c4cc(F)ccc4F)cc3F)ccnc2cc1OCCCN1CCN(C)CC1" , the logged viability at 10 µM turned out to be 21 to 40%

So for "COc1cc2c(Oc3cccc(NS(=O)(=O)c4ccccc4C(F)(F)F)c3)ccnc2cc1OCCCN1CCN(C)CC1" , the logged viability at 10 µM turned out to be 0 to 20%
